- Test system: P. aeruginosa PAO1
- experiment: Half maximal inhibitory concentration (IC50) of planktonic growth, CFU/mL enumeration
- Assay type: cell-based, Pseudomonas aeruginosa
- condition-set: Pseudomonas aeruginosa, PAO1; planktonic growth, 24 h, 35° C, defined media, 2% DMSO; average ± SD of three experiments
pIC50: −log10 of the molar value.
Attribute: pIC50
assay-readout: pIC50

O=C1NC(=O)c2c(NCc3cc(O)cc(Cl)c3)cccc21 : 4.09
O=C1NC(=O)c2c(NCCCc3ccccc3O)cccc21 : 4.02
O=C1NC(=O)c2c(NCc3ccccc3O)cccc21 : 3.59
O=C1NC(=O)c2c(NCCCc3cc(F)ccc3O)cccc21 : 4.27
O=C1NC(=O)c2c(NCc3cc(F)ccc3O)cccc21 : 3.89
O=C1NC(=O)c2c(NCCCc3cccc(O)c3)cccc21 : 3.92
O=C1NC(=O)c2c(NCCCc3cc(O)cc(Cl)c3)cccc21 : 4.38
O=C1NC(=O)c2c(NCc3cc(Cl)ccc3O)cccc21 : 4.16
O=C1NC(=O)c2c(NCc3cccc(Cl)c3O)cccc21 : 3.81
